measurement-target: Plasminogen (Homo sapiens, UniProt P00747)
Sequence (P00747 97-580 limits assumed): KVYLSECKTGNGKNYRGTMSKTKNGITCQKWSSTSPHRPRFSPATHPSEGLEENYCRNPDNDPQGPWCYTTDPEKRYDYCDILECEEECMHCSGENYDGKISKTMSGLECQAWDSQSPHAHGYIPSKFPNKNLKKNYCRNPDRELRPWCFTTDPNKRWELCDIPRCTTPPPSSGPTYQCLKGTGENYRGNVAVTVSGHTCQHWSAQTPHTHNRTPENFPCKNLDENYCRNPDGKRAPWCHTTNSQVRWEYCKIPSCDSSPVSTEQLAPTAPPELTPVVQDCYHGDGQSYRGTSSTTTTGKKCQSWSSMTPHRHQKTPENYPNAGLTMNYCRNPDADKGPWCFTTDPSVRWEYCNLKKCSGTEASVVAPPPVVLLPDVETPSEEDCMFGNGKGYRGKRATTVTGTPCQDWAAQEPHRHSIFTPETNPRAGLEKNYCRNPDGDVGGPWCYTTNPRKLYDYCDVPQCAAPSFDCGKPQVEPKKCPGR
Sequence (P00747 581-810 limits assumed): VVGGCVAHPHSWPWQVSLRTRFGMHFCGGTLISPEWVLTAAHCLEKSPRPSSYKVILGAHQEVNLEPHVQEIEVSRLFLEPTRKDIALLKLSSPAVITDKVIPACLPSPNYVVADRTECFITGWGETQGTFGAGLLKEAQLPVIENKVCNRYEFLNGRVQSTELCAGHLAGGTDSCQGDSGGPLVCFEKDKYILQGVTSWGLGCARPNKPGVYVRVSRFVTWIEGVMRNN
measured-metric: Ki (µM)
Please reply with the bare figure in µM and do not write the unit itself.

Task: Any idea what Ki was measured for C=C1CCC(c2ccc(CNC(=N)N)cc2)C(=O)O1 (stereo unspecified) ?
Result: 466

----------
measurement-target: Prothrombin (Homo sapiens, UniProt P00734)
measured-metric: Ki (µM)
Please reply with the bare figure in µM and do not write the unit itself.

Task: Form field: Ki recorded for C=C1CCC(c2ccc(CNC(=N)N)cc2)C(=O)O1 (stereo unspecified) with Prothrombin (Homo sapiens, UniProt P00734) (enter value)
Result: 37.9

----------
measurement-target: Serine protease 1 (Bos taurus)
Sequence (P00760 whole entry): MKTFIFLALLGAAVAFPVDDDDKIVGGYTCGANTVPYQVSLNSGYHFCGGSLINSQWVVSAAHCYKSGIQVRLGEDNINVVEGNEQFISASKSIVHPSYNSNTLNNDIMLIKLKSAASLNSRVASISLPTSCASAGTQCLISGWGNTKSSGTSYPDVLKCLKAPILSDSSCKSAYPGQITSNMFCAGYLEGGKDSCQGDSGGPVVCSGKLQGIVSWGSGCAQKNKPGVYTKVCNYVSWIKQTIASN
protocol-notes: Compound was tested for its binding affinity against the enzyme trypsin
measured-metric: pKi
In plain terms, pKi is the concentration in mol/L turned into minus its base-10 logarithm.

Task: Form field: pKi recorded for N=C(N)Nc1ccc(C2CC(=O)O/C(=C\I)C2)cc1 (stereo unspecified) with Serine protease 1 (Bos taurus) (enter value)
Result: 5.37
